tested on: HEC-1B; test: IC50 in endometrial cancer cell lines (untitled table); format: cell-based; details: Homo sapiens, PIK3CA^mut, PIK3R2^mut, PTEN^Loss(protein) and KRAS^mut, Type II
pIC50: −log10 of the molar value.
observationType: pIC50

Req: // map `COc1c(OCCCN2CCOCC2)ccc2c1N=C(NC(=O)c1cnc(N)nc1)N1CCN=C21` to recorded pIC50 (system: HEC-1B)
Resp: > 8.16

###

system: MFE 280; assay: IC50 in endometrial cancer cell lines (untitled table); type: cell-based; details: Homo sapiens, PIK3CA^G1047Y, RB^del, FGFR2^5252W, Type II
pIC50: −log10 of the molar value.
observationType: pIC50

Req: Tell me the measured pIC50 of `COc1c(OCCCN2CCOCC2)ccc2c1N=C(NC(=O)c1cnc(N)nc1)N1CCN=C21` , please.
Resp: > 8.16
